Entries and their measured pIC50 follow.
test_target: Human plasma kallikrein (Homo sapiens (Human), UniProt P03952)
Sequence (P03952 391-638): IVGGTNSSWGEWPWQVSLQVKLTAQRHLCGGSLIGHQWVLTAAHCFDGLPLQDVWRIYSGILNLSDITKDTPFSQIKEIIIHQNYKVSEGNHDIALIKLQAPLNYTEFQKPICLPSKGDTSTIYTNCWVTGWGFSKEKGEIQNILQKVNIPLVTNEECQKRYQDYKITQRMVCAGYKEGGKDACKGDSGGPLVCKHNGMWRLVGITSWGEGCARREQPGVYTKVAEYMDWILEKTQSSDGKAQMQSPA
Sequence (P03952 20-390 partner): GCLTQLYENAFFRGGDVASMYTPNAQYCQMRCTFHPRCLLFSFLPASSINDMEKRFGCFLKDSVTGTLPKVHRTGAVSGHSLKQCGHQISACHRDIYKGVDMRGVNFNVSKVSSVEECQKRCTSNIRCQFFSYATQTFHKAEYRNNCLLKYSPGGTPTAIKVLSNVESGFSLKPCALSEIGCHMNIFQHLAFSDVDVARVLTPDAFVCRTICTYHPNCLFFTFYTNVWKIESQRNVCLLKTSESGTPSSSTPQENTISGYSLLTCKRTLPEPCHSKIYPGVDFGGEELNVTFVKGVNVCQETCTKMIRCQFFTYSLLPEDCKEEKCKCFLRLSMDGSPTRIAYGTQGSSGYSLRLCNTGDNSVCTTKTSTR
test_name: Kallikrein Assay
test_settings: purified Human plasma kallikrein 0.5 nM, substrate Acetyl-K-P-R-AFC; read-out: P. KLK IC50
To interpret pIC50, take it as minus log10 of a concentration measured in moles per litre.

Recorded results for 2 compounds are shown here.
compound="COc1cc(C(CC2CC2)C(=O)Nc2ccc(C(=O)O)cc2)[n+]([O-])cc1-c1c(OC(F)F)ccc(Cl)c1F (single isomer, unassigned) [Example 70]" endpoint_name=pIC50 value_reported=8.48
compound="O=C(O)c1ccc(NC(=O)C(CC2CC2)c2ccc(-c3c(C(F)F)ccc(Cl)c3F)c[n+]2[O-])cc1F (single isomer, unassigned)" endpoint_name=pIC50 value_reported=7.84

Prompt line: Which pIC50 is listed for O=C(O)c1ccc(NC(=O)C(CC2CCC2)c2ccc(-c3c(C(F)F)ccc(Cl)c3F)c[n+]2[O-])cc1F (single isomer, unassigned) ?
Response line: 8.68

Prompt line: Recorded pIC50 of C[C@]1(O)CC[C@H](CC(C(=O)Nc2ccc(C(=O)O)cc2)c2ccc(-c3c(C(F)F)ccc(Cl)c3F)c[n+]2[O-])CC1 (single isomer, unassigned) , please.
Response line: 7.70

Prompt line: Which pIC50 reading was recorded for the compound CC1CC(CC(C(=O)Nc2ccc(C(=O)O)cc2)c2ccc(-c3c(C(F)(F)F)ccc(Cl)c3F)c[n+]2[O-])C1 (single isomer, unassigned) [Example 75] ?
Response line: 7.11

Prompt line: pIC50 lookup needed for O=C(O)c1ccc(NC(=O)C(C[C@H]2CC[C@H](O)CC2)c2ccc(-c3c(C(F)F)ccc(Cl)c3F)c[n+]2[O-])cc1 (single isomer, unassigned) , thanks.
Response line: 8.24

---

aPTT (1.5x) listing for selected compounds.
System: Human plasma (intrinsic coagulation cascade)
test_name: Activated Partial Thromboplastin Time (aPTT) Assay
test_settings: concentration that causes a 50% (1.5×) increase of clot time over vehicle
Give the value in µM but do not write µM after it.

compound="O=C(O)c1ccc(NC(=O)C(CC2CC(F)(F)C2)c2ccc(-c3c(OC(F)F)ccc(Cl)c3F)c[n+]2[O-])cc1 (racemic)" endpoint_name="aPTT (1.5x)" value_reported=1.33

We next turn to a different compound, shown below.
Prompt line: I am curious: what aPTT (1.5x) value has been reported for CC1CC(CC(C(=O)Nc2ccc(C(=O)O)cc2)c2ccc(-c3c(C(F)(F)F)ccc(Cl)c3F)c[n+]2[O-])C1 (single isomer, unassigned) ?
Response line: 2.77

---

test_target: Human plasma kallikrein (Homo sapiens (Human))
test_name: Kallikrein Assay
test_settings: purified Human plasma kallikrein 0.5 nM, substrate Acetyl-K-P-R-AFC; read-out: P. KLK IC50
Each record here notes measured log10 of IC50.
Reminder: these figures are log10 of reported IC50, in nM before transformation.

Recorded results for 6 compounds are shown here.
compound="O=C(O)c1ccc(NC(=O)C(CC2CC2)c2ccc(-c3cc(Cl)ccc3OC(F)F)c[n+]2[O-])cc1 (single isomer, unassigned) [Example 7]" value_reported=2.42
compound="O=C(O)c1ccc(NC(=O)C(CC2CC(F)C2)c2ccc(-c3c(C(F)F)ccc(Cl)c3F)c[n+]2[O-])cc1 (single isomer, unassigned) [Example 81]" value_reported=0.92
compound="O=C(O)c1ccc(NC(=O)C(CC2CC2C(F)(F)F)c2ccc(-c3c(OC(F)F)ccc(Cl)c3F)c[n+]2[O-])cc1 (single isomer, unassigned) [Example 109]" value_reported=1.40
compound="O=C(O)c1ccc(NC(=O)C(CC2CC2C(F)(F)F)c2ccc(-c3c(C(F)F)ccc(Cl)c3F)c[n+]2[O-])cc1 (single isomer, unassigned) [Example 88]" value_reported=0.56
compound="O=C(O)c1ccc(NC(=O)C(CC2CC2C(F)F)c2ccc(-c3c(C(F)F)ccc(Cl)c3F)c[n+]2[O-])cc1 (single isomer, unassigned) [Example 90]" value_reported=0.72
compound="O=C(O)c1ccc(NC(=O)C(CC2CC(F)C2)c2ccc(-c3c(OC(F)F)ccc(Cl)c3F)c[n+]2[O-])cc1 (single isomer, unassigned) [Example 102]" value_reported=1.50

Prompt line: Can you look up the measured log10 of IC50 of O=C(O)c1ccc(NC(=O)C(CC2CC2)c2ccc(-c3c(C(F)(F)F)ccc(Cl)c3F)c[n+]2[O-])cc1 (single isomer, unassigned) [Example 27] for me?
Response line: 2.21

Prompt line: Any idea what its log10 of IC50 is? The compound is O=C(O)c1ccc(NC(=O)[C@H](CC2CCC2)c2ccc(-c3c(C(F)F)ccc(Cl)c3F)c[n+]2[O-])cc1 (mixture of isomers) [Example 4]
Response line: 0.67

Prompt line: So what does the record say about log10 of IC50 for CC1(C)CC1CC(C(=O)Nc1ccc(C(=O)O)cc1)c1ccc(-c2c(OC(F)F)ccc(Cl)c2F)c[n+]1[O-] (single isomer, unassigned) [Example 112] ?
Response line: 1.33

Prompt line: Could you share which log10 of IC50 value was measured for CC1C(C)C1CC(C(=O)Nc1ccc(C(=O)O)cc1)c1ccc(-c2c(OC(F)F)ccc(Cl)c2F)c[n+]1[O-] (single isomer, unassigned) [Example 99] ?
Response line: 1.96

Prompt line: Param item = N#CC1(CC(C(=O)Nc2ccc(C(=O)O)cc2)c2ccc(-c3c(C(F)F)ccc(Cl)c3F)c[n+]2[O-])CC1 (racemic) [Example 31] ; retrieve measured log10 of IC50.
Response line: 1.49

The values you see were collected from patent US10143681B2.
